These measurements were taken from patent US10760110B2.

System: K. pneumoniae NVT1001 strains with carbapenemase plasmids
Experiment: Etest MIC of β-lactams, OmpK35/36 loss, ΔramR and/or carbapenemase (Table 9)
Type: cell-based, Klebsiella pneumoniae
Settings: Klebsiella pneumoniae, VIM-1 on pACYC177; WT (NVT1001); read-out: MIC
Property: MIC

                    structure_smiles_string   data_value
0  CC(C)(O/N=C(\C(=O)N[C@@H]1C(=O)N2C(C(=O)[O-])=C(C[n+]3ccccc3)CS[C@H]12)c1csc(N)n1)C(=O)O  > 256 µg/mL
1  CO[C@@]1(NC(=O)Cc2cccs2)C(=O)N2C(C(=O)O)=C(COC(N)=O)CS[C@@H]21  > 256 µg/mL
2  CO/N=C(\C(=O)N[C@@H]1C(=O)N2C(C(=O)O)=C(COC(N)=O)CS[C@H]12)c1ccco1  > 256 µg/mL
3  CC(=O)OCC1=C(C(=O)O)N2C(=O)[C@@H](NC(=O)Cc3cccs3)[C@H]2SC1  > 256 µg/mL

###

System: K. pneumoniae NVT1001 strains with ESBL or AmpC β-lactamase plasmids
Experiment: Etest MIC of β-lactams, OmpK35/36 loss, ΔramR and/or extended-spectrum β-lactamase and AmpC β-lactamase (Table 8)
Format: cell-based, Klebsiella pneumoniae
Settings: Klebsiella pneumoniae, DHA-1-AmpR on pACYC177; Δ36 (ΔompK36 mutant)
Property: MIC

>>> print(df.to_string())
                                   compound  property   data_value
0  CO[C@@]1(NC(=O)Cc2cccs2)C(=O)N2C(C(=O)O)=C(COC(N)=O)CS[C@@H]21 [Cefoxitin]       MIC  > 256 µg/mL
1  CO/N=C(\C(=O)N[C@@H]1C(=O)N2C(C(=O)O)=C(COC(N)=O)CS[C@H]12)c1ccco1 [Cefuroxime]       MIC  > 256 µg/mL
2  CC(=O)OCC1=C(C(=O)O)N2C(=O)[C@@H](NC(=O)Cc3cccs3)[C@H]2SC1 [Cephalothin]       MIC  > 256 µg/mL

###

Below: a set of entries, each annotated with reported MIC.
Tested on: K. pneumoniae NVT1001 ΔramRΔompK35/36 mutant and its revertants
Experiment: Etest MIC, ΔramRΔompK35/36 mutant and its revertants (Table 7)
Format: cell-based
Conditions: Klebsiella pneumoniae, ΔramRΔompK35/36::ramR revertant

Compound	Assayed target	MIC
CCO/N=C(\C(=O)N[C@@H]1C(=O)N2C(C(=O)[O-])=C(Sc3nc(-c4cc[n+](C)cc4)cs3)CS[C@H]12)c1nsc(N)n1 [Ceftaroline]	K. pneumoniae NVT1001 ΔramRΔompK35/36 mutant and its revertants	1 µg/mL
C[C@@H](O)[C@H]1C(=O)N2C(C(=O)O)=C(S[C@@H]3CN[C@H](CNS(N)(=O)=O)C3)[C@H](C)[C@H]12 [Doripenem]	K. pneumoniae NVT1001 ΔramRΔompK35/36 mutant and its revertants	0.25 µg/mL
C[C@H]1c2cccc(O)c2C(=O)C2=C(O)[C@]3(O)C(=O)C(C(N)=O)=C(O)[C@@H](N(C)C)[C@@H]3[C@@H](O)[C@@H]21 [Doxycycline, doxycycline]	K. pneumoniae NVT1001 ΔramRΔompK35/36 mutant and its revertants	4 µg/mL
CO/N=C(\C(=O)N[C@@H]1C(=O)N2C(C(=O)O)=C(COC(C)=O)CS[C@H]12)c1csc(N)n1 [Cefotaxime]	K. pneumoniae NVT1001 ΔramRΔompK35/36 mutant and its revertants	2 µg/mL
C[C@@H](O)[C@H]1C(=O)N2C(C(=O)O)=C(S[C@@H]3CN[C@H](C(=O)N(C)C)C3)[C@H](C)[C@H]12 [Meropenem]	K. pneumoniae NVT1001 ΔramRΔompK35/36 mutant and its revertants	0.5 µg/mL
O=C1CN(/N=C/c2ccc([N+](=O)[O-])o2)C(=O)N1 [Nitrofurantoin]	K. pneumoniae NVT1001 ΔramRΔompK35/36 mutant and its revertants	> 512 µg/mL
Cc1cc(NS(=O)(=O)c2ccc(N)cc2)no1 [Sulfamethoxazole]	K. pneumoniae NVT1001 ΔramRΔompK35/36 mutant and its revertants	> 1020 µg/mL
CN(C)c1ccc(O)c2c1C[C@H]1C[C@H]3[C@H](N(C)C)C(O)=C(C(N)=O)C(=O)[C@@]3(O)C(O)=C1C2=O [Minocycline]	K. pneumoniae NVT1001 ΔramRΔompK35/36 mutant and its revertants	4 µg/mL
COc1cc(Cc2cnc(N)nc2N)cc(OC)c1OC [Trimethoprim]	K. pneumoniae NVT1001 ΔramRΔompK35/36 mutant and its revertants	2 µg/mL
C[C@H]1[C@H](NC(=O)/C(=N\OC(C)(C)C(=O)O)c2csc(N)n2)C(=O)N1S(=O)(=O)O [Aztreonam]	K. pneumoniae NVT1001 ΔramRΔompK35/36 mutant and its revertants	0.5 µg/mL
CO/N=C(\C(=O)N[C@@H]1C(=O)N2C(C(=O)O)=C(COC(N)=O)CS[C@H]12)c1ccco1 [Cefuroxime]	K. pneumoniae NVT1001 ΔramRΔompK35/36 mutant and its revertants	32 µg/mL
CO[C@@]1(NC(=O)Cc2cccs2)C(=O)N2C(C(=O)O)=C(COC(N)=O)CS[C@@H]21 [Cefoxitin]	K. pneumoniae NVT1001 ΔramRΔompK35/36 mutant and its revertants	64 µg/mL
CCn1cc(C(=O)O)c(=O)c2ccc(C)nc21 [Nalidixic acid, nalidixic acid]	K. pneumoniae NVT1001 ΔramRΔompK35/36 mutant and its revertants	8 µg/mL
CC1COc2c(N3CCN(C)CC3)c(F)cc3c(=O)c(C(=O)O)cn1c23 (stereo not drawn) [Ofloxacin, ofloxacin]	K. pneumoniae NVT1001 ΔramRΔompK35/36 mutant and its revertants	0.25 µg/mL
C[C@@H]1O[C@@H]1P(=O)(O)O [Fosfomycin]	K. pneumoniae NVT1001 ΔramRΔompK35/36 mutant and its revertants	512 µg/mL
CC(C)(O/N=C(\C(=O)N[C@@H]1C(=O)N2C(C(=O)[O-])=C(C[n+]3ccccc3)CS[C@H]12)c1csc(N)n1)C(=O)O [Ceftazidime]	K. pneumoniae NVT1001 ΔramRΔompK35/36 mutant and its revertants	1 µg/mL
CN(C)c1cc(NC(=O)CNC(C)(C)C)c(O)c2c1C[C@H]1C[C@H]3[C@H](N(C)C)C(O)=C(C(N)=O)C(=O)[C@@]3(O)C(O)=C1C2=O [Tigecycline, tigecycline]	K. pneumoniae NVT1001 ΔramRΔompK35/36 mutant and its revertants	1 µg/mL
C[C@@H](O)[C@H]1C(=O)N2C(C(=O)O)=C(S[C@@H]3CN[C@H](C(=O)Nc4cccc(C(=O)O)c4)C3)[C@H](C)[C@H]12 [Ertapenem]	K. pneumoniae NVT1001 ΔramRΔompK35/36 mutant and its revertants	1 µg/mL
CC(=O)OCC1=C(C(=O)O)N2C(=O)[C@@H](NC(=O)Cc3cccs3)[C@H]2SC1 [Cephalothin]	K. pneumoniae NVT1001 ΔramRΔompK35/36 mutant and its revertants	> 256 µg/mL
COc1c(N2C[C@@H]3CCCN[C@@H]3C2)c(F)cc2c(=O)c(C(=O)O)cn(C3CC3)c12 [Moxifloxacin, moxifloxacin]	K. pneumoniae NVT1001 ΔramRΔompK35/36 mutant and its revertants	0.06 µg/mL
CCn1cc(C(=O)O)c(=O)c2cc(F)c(N3CCNCC3)cc21 [Norfloxacin, norfloxacin]	K. pneumoniae NVT1001 ΔramRΔompK35/36 mutant and its revertants	0.5 µg/mL
CO/N=C(\C(=O)N[C@@H]1C(=O)N2C(C(=O)[O-])=C(C[N+]3(C)CCCC3)CS[C@H]12)c1csc(N)n1 [Cefepime]	K. pneumoniae NVT1001 ΔramRΔompK35/36 mutant and its revertants	1 µg/mL
O=C(N[C@H](CO)[C@H](O)c1ccc([N+](=O)[O-])cc1)C(Cl)Cl [Chloramphenicol]	K. pneumoniae NVT1001 ΔramRΔompK35/36 mutant and its revertants	8 µg/mL
C[C@H]1COc2c(N3CCN(C)CC3)c(F)cc3c(=O)c(C(=O)O)cn1c23 [Levofloxacin, levofloxacin]	K. pneumoniae NVT1001 ΔramRΔompK35/36 mutant and its revertants	0.125 µg/mL

###

Below: a set of entries, each annotated with reported MIC.
Test system: K. pneumoniae NVT1001 and its ΔompK35/36 and/or ΔramR mutants
Assay: Etest MIC, OmpK35/36 loss and AcrAB-TolC overexpression (ΔramR) strains (Table 6)
Type: cell-based, Klebsiella pneumoniae
Details: Klebsiella pneumoniae, WT, NVT1001, read-out: MIC
Property: MIC (µg/mL)

>>> df
                                   compound  data_value
0  CO[C@@]1(NC(=O)Cc2cccs2)C(=O)N2C(C(=O)O)=C(COC(N)=O)CS[C@@H]21 [Cefoxitin]           4
1  CCO/N=C(\C(=O)N[C@@H]1C(=O)N2C(C(=O)[O-])=C(Sc3nc(-c4cc[n+](C)cc4)cs3)CS[C@H]12)c1nsc(N)n1 [Ceftaroline]        0.25
2  C[C@H]1[C@H](NC(=O)/C(=N\OC(C)(C)C(=O)O)c2csc(N)n2)C(=O)N1S(=O)(=O)O [Aztreonam]        0.03
